These data points were gathered from ChEMBL document CHEMBL4706691.

Biological target: Voltage-dependent calcium channel subunit alpha-2/delta-1 (Homo sapiens)
Sequence (P54289 25-956 limits assumed): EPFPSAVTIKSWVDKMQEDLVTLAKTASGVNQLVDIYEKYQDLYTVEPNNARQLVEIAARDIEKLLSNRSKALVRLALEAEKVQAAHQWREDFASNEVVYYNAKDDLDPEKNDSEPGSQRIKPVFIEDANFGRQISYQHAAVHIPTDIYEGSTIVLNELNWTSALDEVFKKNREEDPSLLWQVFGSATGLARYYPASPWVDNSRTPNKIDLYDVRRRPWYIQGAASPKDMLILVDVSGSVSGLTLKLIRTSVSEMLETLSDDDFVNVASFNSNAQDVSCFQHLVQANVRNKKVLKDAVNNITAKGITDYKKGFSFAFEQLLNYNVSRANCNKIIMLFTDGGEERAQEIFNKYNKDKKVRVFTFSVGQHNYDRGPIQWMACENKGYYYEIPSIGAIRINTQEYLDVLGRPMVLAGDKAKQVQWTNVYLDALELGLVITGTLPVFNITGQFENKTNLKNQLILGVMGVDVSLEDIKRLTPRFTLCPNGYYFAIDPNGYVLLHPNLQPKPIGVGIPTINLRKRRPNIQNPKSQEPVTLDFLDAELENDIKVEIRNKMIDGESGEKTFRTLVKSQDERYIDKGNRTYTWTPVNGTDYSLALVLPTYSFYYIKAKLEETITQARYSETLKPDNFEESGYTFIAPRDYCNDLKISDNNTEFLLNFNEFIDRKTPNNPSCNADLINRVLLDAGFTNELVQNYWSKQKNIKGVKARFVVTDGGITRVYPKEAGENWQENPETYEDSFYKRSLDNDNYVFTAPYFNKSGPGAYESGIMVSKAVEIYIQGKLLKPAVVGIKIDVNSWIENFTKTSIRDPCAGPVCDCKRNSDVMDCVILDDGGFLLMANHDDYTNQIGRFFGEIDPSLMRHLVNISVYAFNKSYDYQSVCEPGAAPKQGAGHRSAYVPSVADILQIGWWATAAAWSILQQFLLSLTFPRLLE
Sequence (P54289 957-1103 limits assumed): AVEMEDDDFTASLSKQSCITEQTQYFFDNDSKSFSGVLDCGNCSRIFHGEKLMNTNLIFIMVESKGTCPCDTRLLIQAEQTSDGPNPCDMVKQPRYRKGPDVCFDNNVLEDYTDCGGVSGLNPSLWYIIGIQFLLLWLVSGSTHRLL
Assay: Displacement of [3H]-gabapentin from human Cav alpha2delta1 expressed in CHO-K1 cell membranes incubated for 60 mins by scintillation counting method
Field: Ki. Provide a value for each of the molecules that follow.

Looking for the measured Ki of CCNc1ncc2c(n1)N(C)CCN(c1ccccc1COC(CCNC)c1ccccc1)C2=O (stereo not drawn) , can you help?
> 10 µM

Returns the measured Ki for the input molecule. Input: CCN(C)c1ncc2c(n1)N(C)CCN(c1cccc(-c3nnc(C)o3)c1)C2=O
> 10 µM

Find the recorded Ki belonging to CCNc1ncc(C(=O)N(C)c2cccc(OC(CCNC)c3ccccc3)c2)cn1 (stereo not drawn) and report it.
> 10 µM
